- System: MDA-MB-435 melanoma
- assay_comment: NCI-60 one-dose screen, 48 h
- condition_context: 10 µM unless noted
The panel holds about 83,000 compounds, 20% with a hit somewhere; the sample as a whole holds those more often. Activity calls are given as the source filed them. How the source made its calls: active means growth percent below 10; inactive means the rest.
Entry note: the call must match one of true = active, false = inactive

These solved cases illustrate the format of a correct answer.
compound: CC(=O)c1cc(C(=O)N2c3ccccc3Sc3ccccc32)n2ccc3ccccc3c12
group_label: true

compound: O=C(NNc1nc2cc(F)c(F)cc2n2cccc12)c1cnccn1
group_label: false

compound: CC1=NC2=NC(=O)/C(=C3/N=C(C)C=C(c4ccccc4)N3N)NN2C(c2ccccc2)=C1
group_label: false

compound: COc1cc2nc(Cl)nc(Nc3cccc(C4=Nc5c(N)nc(N)nc5NC(c5ccc(Br)cc5)C4)c3)c2cc1OC (configuration not stated)
group_label: false

compound: Cc1ccc(-c2nnc(SCc3ccc(O)c4ncccc34)n2-c2ccccc2)cc1
group_label: true

Ask: Outcome logged for "c1n[nH]cc1-c1nc2ccc3[nH]ncc3c2c2c1CCCC2" in this assay:
Result: true

Ask: Dear all, I need the recorded test outcome for "NS(=O)(=O)c1ccc(Nc2nc(N/N=C/CCc3ccccc3)nc(Nc3ccccc3)n2)cc1" , thank you.
Result: false

Ask: Hi team, can someone confirm the assay call for "Oc1[nH]c2ccccc2c1Nn1c(N=N/C=c2/ccc3c(c2)C=NN=3)n[nH]c1=S" ?
Result: false

Ask: Hi team, can someone confirm the assay call for "Cn1cc(-c2nc(N)nnc2-c2c[nH]c3ccccc23)c2cc(Br)ccc21" ?
Result: true

Ask: Recorded call for Cc1ccc2c(c1)C13C(=C2Br)CCCN1C(=O)c1ccccc13 (configuration not stated) ?
Result: false

Ask: What classification did "CN1CCN(Cc2ccc(NC(=O)c3cncc(C#Cc4cnc5ccc(NCCCO)nn45)c3)cc2C(F)(F)F)CC1" end up with in this test?
Result: true

Ask: I would be grateful if you could indicate the recorded call for "COc1ccccc1N1CCN(C2=CC(=O)C(C)=C(C)C2=O)CC1" .
Result: false

Where do the numbers come from? From PubChem BioAssay (NCI).
